molecular target: Recombinant human Factor IX (rhFIX, Genetics Institute) (human, UniProt P00740 47-461); assay: titration calorimetry, 37 C, 10 mM CaCl2
Sequence (P00740 47-461 limits assumed): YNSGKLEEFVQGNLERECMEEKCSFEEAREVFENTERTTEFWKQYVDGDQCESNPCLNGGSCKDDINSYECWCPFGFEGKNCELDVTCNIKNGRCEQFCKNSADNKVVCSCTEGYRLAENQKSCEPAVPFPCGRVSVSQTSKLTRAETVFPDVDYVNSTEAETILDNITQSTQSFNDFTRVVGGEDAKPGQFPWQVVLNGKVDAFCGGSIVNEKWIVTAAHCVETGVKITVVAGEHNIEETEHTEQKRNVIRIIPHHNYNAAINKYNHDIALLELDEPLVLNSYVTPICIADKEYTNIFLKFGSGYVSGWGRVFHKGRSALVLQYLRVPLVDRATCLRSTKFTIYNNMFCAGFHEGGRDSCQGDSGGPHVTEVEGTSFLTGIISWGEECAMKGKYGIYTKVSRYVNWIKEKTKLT
measuredEndpoint: Kd (nM)
# number only, unit nM dropped from output

# count of solved cases: 2
| binder | measuredEndpoint | resultUnit | observedMeasurement |
| --- | --- | --- | --- |
| humanized anti-human Factor IX monoclonal antibody SB 249417 (antibody, V domains shown, also called F9HZHC 1-1 / F9HZLC 2-0) VH: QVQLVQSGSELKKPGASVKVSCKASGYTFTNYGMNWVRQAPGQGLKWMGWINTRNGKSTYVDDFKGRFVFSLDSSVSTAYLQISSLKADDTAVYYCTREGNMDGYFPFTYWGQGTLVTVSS VL: QIVLTQSPSSLSASVGDRVTITCRASSSVNYMHWYQQKPGKAPKPWIYATSNLASGVPSRFSGSGSGTDYTFTISSLQPEDIATYYCQQWSINPRTFGQGTKVEIKR | Kd | nM | 12 |
| humanized anti-human Factor IX monoclonal antibody SB 249415 (antibody, human IgG1, V domains shown, Human IgG1 and kappa constant regions from the vectors; also called F9HZHC 1-1 / F9HZLC 1-1) VH: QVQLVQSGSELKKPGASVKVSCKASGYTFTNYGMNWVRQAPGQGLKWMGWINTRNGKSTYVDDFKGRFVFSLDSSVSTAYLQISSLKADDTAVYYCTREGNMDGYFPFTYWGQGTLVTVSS VL: EIVLTQSPATLSLSPGERATLSCRASSSVNYMHWYQQRPGQAPKPWIYATSNLASGVPARFSGSGSGTDFTLTISSLEPEDFAVYYCQQWSINPRTFGGGTKVEIKR | Kd | nM | 7 |

Now turn to the next binder.
# Kd (binder: humanized anti-human Factor IX monoclonal antibody SB 257732 (antibody, human IgG1, V domains shown, Human IgG1 and kappa constant regions from the vectors; also called F9HZHC 3-0 / F9HZLC 3-0) VH: QIQLVQSGSELKKPGASVKVSCKASGYTFTNYGMNWVRQAPGQGLEWMGWINTRNGKSTYVDDFKGRFVFSLDTSVSTAYLQISSLKAEDTAVYFCTREGNMDGYFPFTYWGQGTLVTVSS VL: QIVLTQSPSSLSASVGDRVTITCRASSSVNYMHWYQQKPGKAPKPWIYATSNLASGVPSRFSGSGSGTDYTLTISSLQPEDFATYYCQQWSINPRTFGGGTKLEIKR ) is 9
